# Test Target: P2X7 (Homo sapiens (Human), UniProt Q99572)
# Sequence (Q99572 whole entry): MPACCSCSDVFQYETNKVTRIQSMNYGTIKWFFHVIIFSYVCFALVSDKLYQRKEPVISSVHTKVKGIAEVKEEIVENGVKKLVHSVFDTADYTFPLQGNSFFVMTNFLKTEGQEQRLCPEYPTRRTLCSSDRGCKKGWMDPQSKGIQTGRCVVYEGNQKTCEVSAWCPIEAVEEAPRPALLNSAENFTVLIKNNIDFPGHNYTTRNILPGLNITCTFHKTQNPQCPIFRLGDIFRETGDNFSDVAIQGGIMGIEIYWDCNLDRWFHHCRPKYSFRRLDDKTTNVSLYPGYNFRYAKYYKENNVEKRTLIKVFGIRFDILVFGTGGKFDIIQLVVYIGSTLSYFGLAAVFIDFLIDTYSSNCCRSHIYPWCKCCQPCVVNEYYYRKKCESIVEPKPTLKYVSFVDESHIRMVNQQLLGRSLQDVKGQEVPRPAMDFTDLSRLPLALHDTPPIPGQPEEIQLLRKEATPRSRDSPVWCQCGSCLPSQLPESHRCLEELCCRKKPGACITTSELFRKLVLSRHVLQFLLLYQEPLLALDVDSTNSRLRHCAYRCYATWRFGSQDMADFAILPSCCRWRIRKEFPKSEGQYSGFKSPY
# Assay Comment: P2X7 antagonism in human PBMCs (LPS + Bz-ATP induced IL-1β release, ELISA)
# Assay type: cell-based
# Condition Set: compound 1 μM, LPS 30 ng/ml, Bz-ATP 0.5 mM
Quantity Kind: PBMC 1 μM (% control)
Unit % control implied. Number only.

Below, 5 compounds whose answers are already recorded.
Notebook: Cn1nc2c(c1-c1ccc(F)cc1)CCN(C(=O)c1cccc(Cl)c1Cl)C2 [Example 326] , PBMC 1 μM (% control) read as 92.0

For reference, reported PBMC 1 μM (% control) for Cn1nc2c(c1-c1ccncc1)CCN(C(=O)c1cccc(Cl)c1Cl)C2 [Example 328] stands at 88.0

GET /value?item= CCC1c2ncn(-c3cnccn3)c2CCN1C(=O)c1cccc(C(F)(F)F)c1Cl (stereo not drawn) [Example 15] &field=PBMC 1 μM (% control) returns 9.1

Given item COc1ccccc1-n1nnc2c1CCN(C(=O)c1cccc(C(F)(F)F)c1Cl)C2 [Example 125] , the value recorded as its PBMC 1 μM (% control) is 83.4

Notebook: O=C(c1cccc(Cl)c1Cl)N1CCc2c(ncn2-c2ccccc2)C1 [Example 3] , PBMC 1 μM (% control) read as 23.0

Continuing:
Per the records, this compound ( O=C(c1cccc(C(F)(F)F)c1Cl)N1CCc2c(nnn2-c2ccccc2OCCF)C1 [Example 126] ) has PBMC 1 μM (% control) equal to 71.7

Data point: CC1c2ncn(-c3ccc(F)cc3)c2CCN1C(=O)c1cccc(C(F)(F)F)c1Cl (stereo not drawn) [Example 18] ; PBMC 1 μM (% control) = 5.3

The compound O=C(c1cccc(Cl)c1Cl)N1CCc2ncn(-c3ccccn3)c2C1 [Example 9] showed PBMC 1 μM (% control) equal to 83.7

Given item O=C(c1cccc(C(F)(F)F)c1Cl)N1CCc2c(ncn2-c2ccccc2)C1CO (stereo not drawn) [Example 30] , the value recorded as its PBMC 1 μM (% control) is 87.0

For O=C(c1cccc(C(F)(F)F)c1Cl)N1CCc2ncn(-c3cnccn3)c2C1 [Example 10] the compound record lists PBMC 1 μM (% control) as 76.5

Reported PBMC 1 μM (% control) ( CC1(C)Cc2cccc(C(=O)N3CCc4c(ncn4-c4ccccc4)C3)c2O1 [Example 52] ) = 98.9

// field: PBMC 1 μM (% control); key: CCOC(=O)C1c2ncn(-c3cnccn3)c2CCN1C(=O)c1cccc(C(F)(F)F)c1Cl (stereo not drawn) [Example 28] ; value = 4.8

* * *

# Test Target: P2X7 (Homo sapiens (Human), UniProt Q99572)
# Assay Comment: P2X7 antagonism in human PBMCs (LPS + Bz-ATP induced IL-1β release, ELISA);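 also: PBMCs from donor human blood, with a further 1.5 h incubation of the cells in the assay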
# Type: cell-based
# Condition Set: compound 10 μM, LPS 30 ng/ml, Bz-ATP 0.5 mM
Here the recorded PBMC 10 μM (% control) is given for each entry.
Report as a plain number; the unit % control is understood.

Please review the following examples before continuing.
Form field, PBMC 10 μM (% control) with P2X7 (Homo sapiens (Human), UniProt Q99572), item C[C@H]1Cc2c(nnn2-c2ncc(F)cn2)CN1C(=O)c1ccc(Cl)c(F)c1Cl (single isomer, unassigned) [Example 218] : 6.1

I looked up O=C(c1cccc(C(F)(F)F)c1Cl)N1CCc2c(-c3cnccn3)n[nH]c2C1 [Example 97] and its PBMC 10 μM (% control) for P2X7 (Homo sapiens (Human), UniProt Q99572) was 12.7

Next:
The value of PBMC 10 μM (% control) recorded for Cc1c(C(=O)N2CCc3c(nnn3-c3ncccn3)[C@@H]2C)cccc1C(F)(F)F (single isomer, unassigned) [Example 197] when tested on P2X7 (Homo sapiens (Human), UniProt Q99572) reads 2.1

Considering CC1c2nnn(-c3ncccc3F)c2C=CN1C(=O)c1cccc(C(F)(F)F)c1Cl (stereo not shown) [Example 82] , its PBMC 10 μM (% control) with P2X7 (Homo sapiens (Human), UniProt Q99572) was recorded as 7.9
